- Tested on: 186277-243-T-J2-PDC complex spheroid growth, % test/control
- Measurement Protocol: Anticancer human tumor 186277-243-T-J2-PDC patient-derived colon adenocarcinoma cell line growth inhibition [Asc]
- Conditions Used: second compound 0.03 µM; first compound 10 µM; stronger effect = lower value
Assay Endpoint: viability, T/C (%)
Entry rule: numbers only, all in %.

Given item O=C(c1cc(Cc2n[nH]c(=O)c3ccccc23)ccc1F)N1CCN(C(=O)C2CC2)CC1 + CCN1C(C(=O)NC23CCC(C(=O)O)(CC2)CC3)C(c2cccc(Cl)c2F)C2(C(=O)Nc3cc(Cl)ccc32)C12CCCCC2 , the value recorded as its viability, T/C is 82.4

Given item C=CC(=O)N1CCN(c2nc(=O)n(-c3c(C)ccnc3C(C)C)c3nc(-c4c(O)cccc4F)c(F)cc23)C(C)C1 (centres undefined) + CCN1C(C(=O)NC23CCC(C(=O)O)(CC2)CC3)C(c2cccc(Cl)c2F)C2(C(=O)Nc3cc(Cl)ccc32)C12CCCCC2 , the value recorded as its viability, T/C is 125

Given item C#Cc1c(F)ccc2cc(O)cc(-c3ncc4c(N5CC6CCC(C5)N6)nc(OCC56CCCN5CC(F)C6)nc4c3F)c12 (centres undefined) + CCN1C(C(=O)NC23CCC(C(=O)O)(CC2)CC3)C(c2cccc(Cl)c2F)C2(C(=O)Nc3cc(Cl)ccc32)C12CCCCC2 , the value recorded as its viability, T/C is 2.76

Given item C=C(F)C(=O)N1CCN(c2nc(OCC3CCCN3C)nc3c2CCN(c2cccc4cccc(Cl)c24)C3)CC1CC#N (centres undefined) + CCN1C(C(=O)NC23CCC(C(=O)O)(CC2)CC3)C(c2cccc(Cl)c2F)C2(C(=O)Nc3cc(Cl)ccc32)C12CCCCC2 , the value recorded as its viability, T/C is 0.44

====

Parameter viability, T/C: see the listing below.
- Tested on: 186277-243-T-J2-PDC complex spheroid growth, % test/control
- Measurement Protocol: Anticancer human tumor 186277-243-T-J2-PDC cell line growth inhibition [Asc];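 also: spheroids exposed to agents for 7 days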;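 as to viability, T/C: 100% = DMSO vehicle control wells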
- Conditions Used: second compound 0.01 µM; first compound 0.316 µM; stronger effect = lower value
- From the text: Multicellular complex tumor spheroid response to apoptosis pathway targeting inhibitors Alrizomadlin, Pelcitoclax, and Dasminapant in combination with a variety of drugs and investigational agents in selected tumor cell lines […] Compounds. […] If the clinical Cmax for an agent had not been determined, the highest concentration tested was 10 microM. […]
Entry rule: numbers only, all in %.

Look over these answered cases.
- C=CC(=O)N1CCN(c2nc(=O)n(-c3c(C)ccnc3C(C)C)c3nc(-c4c(O)cccc4F)c(F)cc23)C(C)C1 (configuration not stated) + CNC(C)C(=O)NC1CN(S(=O)(=O)c2cccc(S(=O)(=O)N3CCC4CCC(C(=O)NC(c5ccccc5)c5ccccc5)N4C(=O)C(NC(=O)C(C)NC)C3)c2)CCC2CCC(C(=O)NC(c3ccccc3)c3ccccc3)N2C1=O: 117
- O=C(c1ccc(F)c(F)c1Nc1ccc(I)cc1F)N1CC(O)([C@@H]2CCCCN2)C1 + CNC(C)C(=O)NC1CN(S(=O)(=O)c2cccc(S(=O)(=O)N3CCC4CCC(C(=O)NC(c5ccccc5)c5ccccc5)N4C(=O)C(NC(=O)C(C)NC)C3)c2)CCC2CCC(C(=O)NC(c3ccccc3)c3ccccc3)N2C1=O: 21.6

In the following, a different compound is considered.
Given item C#Cc1c(F)ccc2cc(O)cc(-c3ncc4c(N5CC6CCC(C5)N6)nc(OCC56CCCN5CC(F)C6)nc4c3F)c12 (configuration not stated) + CNC(C)C(=O)NC1CN(S(=O)(=O)c2cccc(S(=O)(=O)N3CCC4CCC(C(=O)NC(c5ccccc5)c5ccccc5)N4C(=O)C(NC(=O)C(C)NC)C3)c2)CCC2CCC(C(=O)NC(c3ccccc3)c3ccccc3)N2C1=O , the value recorded as its viability, T/C is 68.6

====

- Test system: 186277-243-T-J2-PDC complex spheroid growth, % test/control
- Measurement Protocol: Anticancer human tumor 186277-243-T-J2-PDC cell line growth inhibition [Asc];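 also: spheroids exposed to agents for 7 days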
- Conditions Used: curve of first compound; second compound 0.1 µM
Parameter IC50: see the listing below.
Entry rule: numbers only, all in µM.

* C=C(F)C(=O)N1CCN(c2nc(OCC3CCCN3C)nc3c2CCN(c2cccc4cccc(Cl)c24)C3)CC1CC#N (centres undefined) + CNC(C)C(=O)NC1CN(S(=O)(=O)c2cccc(S(=O)(=O)N3CCC4CCC(C(=O)NC(c5ccccc5)c5ccccc5)N4C(=O)C(NC(=O)C(C)NC)C3)c2)CCC2CCC(C(=O)NC(c3ccccc3)c3ccccc3)N2C1=O | 6.66

In the following, a different compound is considered.
Case NC(=O)C(=Cn1cnc(-c2cc(C(F)(F)F)cc(C(F)(F)F)c2)n1)c1cncnc1 + Cc1c(S(C)(=O)=O)c(-c2cc(F)cc(N3CCN(c4ccc(NS(=O)(=O)c5ccc(NC(CCN6CCC(C(=O)OCCCP(=O)(O)O)CC6)CSc6ccccc6)c(S(=O)(=O)C(F)(F)F)c5)cc4)CC3)c2)c(-c2ccc(Cl)cc2)n1C(C)C , 186277-243-T-J2-PDC complex spheroid growth, % test/control, IC50 recorded as 0.108

====

- Test system: 186277-243-T-J2-PDC complex spheroid growth, % test/control
- Measurement Protocol: Anticancer human tumor 186277-243-T-J2-PDC cell line growth inhibition [Asc];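 also: spheroids exposed to agents for 7 days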;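 as to viability, T/C: 100% = DMSO vehicle control wells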
- Conditions Used: second compound 0.949 µM; first compound 0.0316 µM; stronger effect = lower value
// NB: equality with 50% counts as not fulfilled; only viability, T/C strictly below is fulfilled

Use the examples below as a reference point.
- CNC(C)C(=O)NC1CN(S(=O)(=O)c2cccc(S(=O)(=O)N3CCC4CCC(C(=O)NC(c5ccccc5)c5ccccc5)N4C(=O)C(NC(=O)C(C)NC)C3)c2)CCC2CCC(C(=O)NC(c3ccccc3)c3ccccc3)N2C1=O (stereo not given) + CCN1C(C(=O)NC23CCC(C(=O)O)(CC2)CC3)C(c2cccc(Cl)c2F)C2(C(=O)Nc3cc(Cl)ccc32)C12CCCCC2: not fulfilled
- C#Cc1c(F)ccc2cc(O)cc(-c3ncc4c(N5CC6CCC(C5)N6)nc(OCC56CCCN5CC(F)C6)nc4c3F)c12 (stereo not given) + CCN1C(C(=O)NC23CCC(C(=O)O)(CC2)CC3)C(c2cccc(Cl)c2F)C2(C(=O)Nc3cc(Cl)ccc32)C12CCCCC2: fulfilled
- C=CC(=O)N1CCN(c2nc(=O)n(-c3c(C)ccnc3C(C)C)c3nc(-c4c(O)cccc4F)c(F)cc23)C(C)C1 (stereo not given) + CCN1C(C(=O)NC23CCC(C(=O)O)(CC2)CC3)C(c2cccc(Cl)c2F)C2(C(=O)Nc3cc(Cl)ccc32)C12CCCCC2: not fulfilled
- Cn1ncnc1[C@H]1c2n[nH]c(=O)c3cc(F)cc(c23)N[C@@H]1c1ccc(F)cc1 + CCN1C(C(=O)NC23CCC(C(=O)O)(CC2)CC3)C(c2cccc(Cl)c2F)C2(C(=O)Nc3cc(Cl)ccc32)C12CCCCC2: fulfilled
- O=C(c1ccc(F)c(F)c1Nc1ccc(I)cc1F)N1CC(O)([C@@H]2CCCCN2)C1 + CCN1C(C(=O)NC23CCC(C(=O)O)(CC2)CC3)C(c2cccc(Cl)c2F)C2(C(=O)Nc3cc(Cl)ccc32)C12CCCCC2: fulfilled
- COc1c(OCCCN2CCOCC2)ccc2c3n(c(=NC(=O)c4cnc(N)nc4)nc12)CCN3 + CCN1C(C(=O)NC23CCC(C(=O)O)(CC2)CC3)C(c2cccc(Cl)c2F)C2(C(=O)Nc3cc(Cl)ccc32)C12CCCCC2: fulfilled

Enquiry: Consider C=C(F)C(=O)N1CCN(c2nc(OCC3CCCN3C)nc3c2CCN(c2cccc4cccc(Cl)c24)C3)CC1CC#N (stereo not given) + CCN1C(C(=O)NC23CCC(C(=O)O)(CC2)CC3)C(c2cccc(Cl)c2F)C2(C(=O)Nc3cc(Cl)ccc32)C12CCCCC2 . Does its viability, T/C lie strictly below 50%?
Return: not fulfilled

Enquiry: Consider NC1CCC(NC2CC2c2ccccc2)CC1 (stereo not given) + CCN1C(C(=O)NC23CCC(C(=O)O)(CC2)CC3)C(c2cccc(Cl)c2F)C2(C(=O)Nc3cc(Cl)ccc32)C12CCCCC2 . Does its viability, T/C lie strictly below 50%?
Return: not fulfilled

Enquiry: Consider O=C(c1cc(Cc2n[nH]c(=O)c3ccccc23)ccc1F)N1CCN(C(=O)C2CC2)CC1 + CCN1C(C(=O)NC23CCC(C(=O)O)(CC2)CC3)C(c2cccc(Cl)c2F)C2(C(=O)Nc3cc(Cl)ccc32)C12CCCCC2 . Does its viability, T/C lie strictly below 50%?
Return: not fulfilled

====

- Tested on: 186277-243-T-J2-PDC complex spheroid growth, % test/control
- Measurement Protocol: Anticancer human tumor 186277-243-T-J2-PDC cell line growth inhibition [Asc];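 also: spheroids exposed to agents for 7 days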;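 as to viability, T/C: 100% = DMSO vehicle control wells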
- Conditions Used: second compound 10 µM; first compound 0.01 µM; stronger effect = lower value
Parameter viability, T/C: see the listing below.
Entry rule: numbers only, all in %.

Look over these answered cases.
* Cn1ncnc1[C@H]1c2n[nH]c(=O)c3cc(F)cc(c23)N[C@@H]1c1ccc(F)cc1 + Cc1c(S(C)(=O)=O)c(-c2cc(F)cc(N3CCN(c4ccc(NS(=O)(=O)c5ccc(NC(CCN6CCC(C(=O)OCCCP(=O)(O)O)CC6)CSc6ccccc6)c(S(=O)(=O)C(F)(F)F)c5)cc4)CC3)c2)c(-c2ccc(Cl)cc2)n1C(C)C | 96.1
* CCN1CCN(Cc2ccc(Nc3ncc(F)c(-c4cc(F)c5nc(C)n(C(C)C)c5c4)n3)nc2)CC1 + Cc1c(S(C)(=O)=O)c(-c2cc(F)cc(N3CCN(c4ccc(NS(=O)(=O)c5ccc(NC(CCN6CCC(C(=O)OCCCP(=O)(O)O)CC6)CSc6ccccc6)c(S(=O)(=O)C(F)(F)F)c5)cc4)CC3)c2)c(-c2ccc(Cl)cc2)n1C(C)C | 84.3

In the following, a different compound is considered.
Case O=C(c1ccc(F)c(F)c1Nc1ccc(I)cc1F)N1CC(O)([C@@H]2CCCCN2)C1 + Cc1c(S(C)(=O)=O)c(-c2cc(F)cc(N3CCN(c4ccc(NS(=O)(=O)c5ccc(NC(CCN6CCC(C(=O)OCCCP(=O)(O)O)CC6)CSc6ccccc6)c(S(=O)(=O)C(F)(F)F)c5)cc4)CC3)c2)c(-c2ccc(Cl)cc2)n1C(C)C , 186277-243-T-J2-PDC complex spheroid growth, % test/control, viability, T/C recorded as 93.5

Source: PubChem BioAssay AID1963426
